Item-by-item account of Insulin polyreactivity score
target or system: Insulin
Sequence (P01308 25-54, chain 1 of 2): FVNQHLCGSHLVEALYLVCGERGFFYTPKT
Sequence (P01308 90-110, chain 2 of 2): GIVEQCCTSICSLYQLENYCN
test description: polyreactivity ELISA on insulin coat, 100 nM
Lab note: record just the number, no unit beside it.

binder	reported
MIAB134 (antibody, V domains shown) VH: EVQLLESGGGLVQPGGSLRLSCAASGFTFSAFWMHWVRQAPGKGLEWISYISGDSGYTNYADSVKGRFTISRDNSKNTLYLQMNSLRAEDTAVYYCARDRPYYYYMDVWGKGTTVTVSS VL: DIQMTQSPSSLSASVGDRVTITCRASQSVSRSLAWYQQKPGKAPKLLIYAASSLQSGVPSRFSGSGSGTDFTLTISSLQPEDFATYYCQQYKSYPVTFGQGTKVEIK	25.5

Okay, next one:
Qu. Quote Insulin polyreactivity score reported for MIAB158 (antibody, V domains shown) VH: EVQLLESGGGLVQPGGSLRLSCAASGFTFSDFWMHWVRQAPGKGLEWISYISGDSGYTNYADSVKGRFTISRDNSKNTLYLQMNSLRAEDTAVYYCARDRPYYYYMDVWGKGTTVTVSS VL: DIQMTQSPSSLSASVGDRVTITCRASQSVSSYLNWYQQKPGKAPKLLIYAASSLQSGVPSRFSGSGSGTDFTLTISSLQPEDFATYYCQQYKSYPVTFGQGTKVEIK please.
Ans. 2.67

Each recorded value in this set is attributed to patent US20240010722A1.
